Target: T1, full-length mature human CD97 (residues Q21-I845) with N-terminal aspartic acid/lysine epitope tag, … (human, UniProt P48960 21-835); also: test concentration or dose not given here
T1 sequence (looked up): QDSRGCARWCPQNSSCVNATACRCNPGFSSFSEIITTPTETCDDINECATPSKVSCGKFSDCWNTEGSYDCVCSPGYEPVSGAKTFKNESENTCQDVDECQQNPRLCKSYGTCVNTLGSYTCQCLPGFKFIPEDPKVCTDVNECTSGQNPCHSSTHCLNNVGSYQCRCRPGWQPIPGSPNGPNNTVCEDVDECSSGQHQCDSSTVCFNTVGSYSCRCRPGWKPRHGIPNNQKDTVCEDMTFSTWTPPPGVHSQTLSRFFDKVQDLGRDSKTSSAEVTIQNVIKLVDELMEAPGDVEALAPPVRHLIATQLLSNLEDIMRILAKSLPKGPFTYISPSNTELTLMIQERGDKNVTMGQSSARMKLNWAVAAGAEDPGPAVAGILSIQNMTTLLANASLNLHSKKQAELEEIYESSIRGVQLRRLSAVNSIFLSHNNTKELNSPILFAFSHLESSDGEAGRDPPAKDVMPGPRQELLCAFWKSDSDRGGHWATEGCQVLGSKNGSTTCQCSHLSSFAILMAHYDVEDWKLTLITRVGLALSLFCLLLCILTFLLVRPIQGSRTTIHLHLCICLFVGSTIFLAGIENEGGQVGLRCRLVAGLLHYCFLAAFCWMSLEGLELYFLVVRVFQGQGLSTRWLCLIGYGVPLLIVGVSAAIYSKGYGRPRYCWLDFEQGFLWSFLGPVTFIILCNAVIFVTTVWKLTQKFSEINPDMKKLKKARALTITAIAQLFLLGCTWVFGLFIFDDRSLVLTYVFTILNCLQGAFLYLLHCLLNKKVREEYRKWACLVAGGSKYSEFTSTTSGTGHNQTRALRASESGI
Assay: cell-based or functional assay
readout_type: % live, FAB-saporin killing assay (%)
One number for each entry, in %.

Below, each entry is followed by its recorded % live, FAB-saporin killing assay result.
binder	result_unit	% live, FAB-saporin killing assay
SC93.266 (antibody, V domains shown, Murine hybridoma antibody) VH: EVKLEESGGGLVQPGGSMKLSCAASGFTFSDAWMDWVRQSPEKGLEWVAEIRSKVNNHETYYAESVKGRFTISRDDSKSSVYLQMNSLRAEDTGIYYCIRNDYFDYWGQGTTLTVSS VL: DIQMTQTTSSLSASLGDRVTISCSASQGIRNYLNWYQQKPDGTVKLLIYYTSRLHSGVPSRFSGSGSGTDYSLTISNLEPEDIATYYCQQYGKLPYTFGGGTKLEIN	%	99.2
SC93.239 (antibody, V domains shown, Murine hybridoma antibody with a kappa light chain; also called clone SC93.239; SC93.239 (Bin A)) VH: LVQLQQSGVELARPGASVKLSCKASGYIFTSYGISWVKQRTGQGLEWIGNIYPRTGNTYYNEKFKDKATLTADKSSNTAYMELRSLTSEDSAVYFCARGTHYDPLDYWGQGTTLTVSS VL: ENVLTQSPAIMSASPGEKVTMTCRASSSVSSSDLHWYQQKSGASPKLWIYSTSNLASGVPARFSGSGSGASCSLTISSVEAEDAATYYCHQYSGYPWTFGGGTKLEIK	%	106

Turning now to a further binder:
Q: Name the recorded % live, FAB-saporin killing assay for SC93.252 (antibody, IgG2a, V domains shown, murine, IgG2a) VH: QVQLQQSDAELVKPGASVKISCKVSGFSFTDHTIHWMRQRPEQGLEWIGYIYPTDGNTRYNEKFKGKASLTADKSSTTAYMQLSSLTSEDSAVYFCAKRGYYWYFDVWGTGTTVTVSS VL: DIQMTQASSYLSVSLGGRVTITCKASDHINNWLAWYQQKPGNAPRLLISHATNLETGFPSRFSGSGSGKDYTLSITSLQTEDVATYYCQQYWNIPYTFGGGTKLEIE .
A: 9.09
